Values from patent US20260098072A1

TARGET_OF_ASSAY: human melanocortin 4 receptor (MC4R) (human, UniProt P32245 1-332)
Sequence (P32245 whole entry): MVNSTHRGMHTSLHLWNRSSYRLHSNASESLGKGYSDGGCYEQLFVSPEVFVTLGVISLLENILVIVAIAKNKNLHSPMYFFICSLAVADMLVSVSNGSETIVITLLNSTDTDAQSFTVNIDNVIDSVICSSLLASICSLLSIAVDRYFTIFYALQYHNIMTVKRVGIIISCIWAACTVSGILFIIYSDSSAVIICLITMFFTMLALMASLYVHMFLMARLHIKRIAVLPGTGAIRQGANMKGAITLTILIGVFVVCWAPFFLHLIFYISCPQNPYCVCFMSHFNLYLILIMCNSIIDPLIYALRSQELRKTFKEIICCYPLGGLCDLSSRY
ASSAY: cell-based or functional assay
Positions of bridges follow the written chain, without caps; N, C: chain ends. Non-standard residues stand in square brackets, D forms with d. d2Nal = N[C@H](Cc1ccc2ccccc2c1)C(=O)O; Nle = CCCC[C@H](N)C(=O)O
READOUT_KIND: Max Activation % (%)

Some entries whose results are on file:
BINDER	Max Activation % (%)
Ac-LDPWRWKVP-NH2 (lactam 2-7; SMILES CC(=O)N[C@@H](CC(C)C)C(=O)N[C@H]1CC(=O)NCCCC[C@@H](C(=O)N[C@H](C(=O)N2CCC[C@H]2C(N)=O)C(C)C)NC(=O)[C@H](Cc2c[nH]c3ccccc23)NC(=O)[C@H](CCCNC(=N)N)NC(=O)[C@H](Cc2c[nH]c3ccccc23)NC(=O)[C@@H]2CCCN2C1=O) [C2]	-3.3
Ac-[Nle]DPWRWK[dV][dP]-NH2 (lactam 2-7; SMILES CCCC[C@H](NC(C)=O)C(=O)N[C@H]1CC(=O)NCCCC[C@@H](C(=O)N[C@@H](C(=O)N2CCC[C@@H]2C(N)=O)C(C)C)NC(=O)[C@H](Cc2c[nH]c3ccccc23)NC(=O)[C@H](CCCNC(=N)N)NC(=O)[C@H](Cc2c[nH]c3ccccc23)NC(=O)[C@@H]2CCCN2C1=O) [C1]	11.1

a. LDPWRWKVP [C7]
b. Ac-[Nle]DP[d2Nal]RWK[dV][dP]-NH2 (lactam 2-7) [TCMCB07]
c. VPFFRWVP [B6]
# input Sort these binders on Max Activation % so the largest reading comes first. Please reply with the labels ordered as requested. Many thanks.
# output b, c, a
